Tested on: Bordetella bronchiseptica (Bor bron)
Assay details: microbe, parasite or virus in culture
Format: cell-based
Condition description: read-out: MIC Bor bron
MIC: recorded values

Readout MIC for CN1COc2c(N3CCN(C(=O)c4cscn4)CC3)c(F)cc3c(=O)c(C(=O)O)cn1c23 , test system Bordetella bronchiseptica (Bor bron), was > 1 µg/mL

Readout MIC for CN1COc2c(N3CCN(C(=O)c4cccn4C)CC3)c(F)cc3c(=O)c(C(=O)O)cn1c23 , test system Bordetella bronchiseptica (Bor bron), was > 1 µg/mL

Readout MIC for CN1COc2c(N3CCN(C(=O)c4ccco4)CC3)c(F)cc3c(=O)c(C(=O)O)cn1c23 , test system Bordetella bronchiseptica (Bor bron), was > 1 µg/mL
